Overview of reported phosphorylation enrichment across a group of sequences:
Test system: AncSZ
Assay: phosphorylation enrichment, bacterial display (enrichment ratio); higher = better substrate or ligand; peptides without Tyr show the background
Property label: phosphorylation enrichment

>  <Query sequence>
LFLACYFIGGG [UBD_Y161_C162F]

>  <Assay target>
AncSZ

>  <Property label>
phosphorylation enrichment

>  <Measurement>
1.16

$$$$
>  <Query sequence>
EQLRAYLEGLC [HLA-C_Y183_T187L]

>  <Assay target>
AncSZ

>  <Property label>
phosphorylation enrichment

>  <Measurement>
1.34

$$$$
>  <Query sequence>
TEALFYTDDTA [ADPRS_Y75_YF]

>  <Assay target>
AncSZ

>  <Property label>
phosphorylation enrichment

>  <Measurement>
1.26

$$$$
>  <Query sequence>
ALCHYYKLNII [ETV6_Y402_R399C]

>  <Assay target>
AncSZ

>  <Property label>
phosphorylation enrichment

>  <Measurement>
1.59

$$$$
>  <Query sequence>
VFLGAYDRFLP [SLC22A5_Y486_YF]

>  <Assay target>
AncSZ

>  <Property label>
phosphorylation enrichment

>  <Measurement>
1.19

$$$$
>  <Query sequence>
VRRVGYVSGWG [HP_Y280_G276R]

>  <Assay target>
AncSZ

>  <Property label>
phosphorylation enrichment

>  <Measurement>
0.613

$$$$
>  <Query sequence>
SLNAVYPKAGS [OAS3_Y376_R378K]

>  <Assay target>
AncSZ

>  <Property label>
phosphorylation enrichment

>  <Measurement>
0.562

$$$$
>  <Query sequence>
IRTDAYVQAMT [RPE65_Y89_R91Q]

>  <Assay target>
AncSZ

>  <Property label>
phosphorylation enrichment

>  <Measurement>
0.543

$$$$
>  <Query sequence>
DENWFYTQAAS [RPS19_Y54_R56Q]

>  <Assay target>
AncSZ

>  <Property label>
phosphorylation enrichment

>  <Measurement>
1.15

$$$$
>  <Query sequence>
HLITAYRAHGF [PDHA1_Y118]

>  <Assay target>
AncSZ

>  <Property label>
phosphorylation enrichment

>  <Measurement>
0.648

$$$$
>  <Query sequence>
EKLQKYFRKNP [EHHADH_Y682_Q685K_YF]

>  <Assay target>
AncSZ

>  <Property label>
phosphorylation enrichment

>  <Measurement>
0.613

$$$$
>  <Query sequence>
TIQIMFGCDVG [HLA-A_Y123_Y123F]

>  <Assay target>
AncSZ

>  <Property label>
phosphorylation enrichment

>  <Measurement>
1.28

$$$$
>  <Query sequence>
ADCRYYAFPQM [GAMT_Y223]

>  <Assay target>
AncSZ

>  <Property label>
phosphorylation enrichment

>  <Measurement>
4.46

$$$$
>  <Query sequence>
KKHIPYRQHKS [CSNK1G2_Y206_E208Q]

>  <Assay target>
AncSZ

>  <Property label>
phosphorylation enrichment

>  <Measurement>
2.09

$$$$
>  <Query sequence>
KPIETYFSKNF [PLP1_Y50_L46P_YF]

>  <Assay target>
AncSZ

>  <Property label>
phosphorylation enrichment

>  <Measurement>
0.656

$$$$
>  <Query sequence>
YRIGPYQPNVP [MATR3_Y784]

>  <Assay target>
AncSZ

>  <Property label>
phosphorylation enrichment

>  <Measurement>
0.685

$$$$
>  <Query sequence>
SQINLYQDVML [ZNF806_Y33_A28S]

>  <Assay target>
AncSZ

>  <Property label>
phosphorylation enrichment

>  <Measurement>
1.02

$$$$
>  <Query sequence>
SVVVPYEPPEG [TP53_Y220_V225G]

>  <Assay target>
AncSZ;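 further: frequency after pTyr selection over input frequency; kinase dosed for 20-30% of maximal phosphorylation in three min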

>  <Property label>
phosphorylation enrichment

>  <Measurement>
1.02

$$$$
>  <Query sequence>
LKALKYKSMKI [ITGA11_Y1098]

>  <Assay target>
AncSZ;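 further: frequency after pTyr selection over input frequency; kinase dosed for 20-30% of maximal phosphorylation in three min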

>  <Property label>
phosphorylation enrichment

>  <Measurement>
0.374

$$$$
>  <Query sequence>
IDNKMYDPKMN [ENPP1_Y280]

>  <Assay target>
AncSZ;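 further: frequency after pTyr selection over input frequency; kinase dosed for 20-30% of maximal phosphorylation in three min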

>  <Property label>
phosphorylation enrichment

>  <Measurement>
0.699

$$$$
>  <Query sequence>
RENGPYYASYP [GDAP2_Y487_T489A]

>  <Assay target>
AncSZ;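 further: 11-residue human phosphosite peptides and single-mutation variants displayed on the E. coli surface, counted by deep sequencing, each peptide's frequency after selection divided by its frequency in the unselected input library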;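 further: frequency after pTyr selection over input frequency; kinase dosed for 20-30% of maximal phosphorylation in three min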

>  <Property label>
phosphorylation enrichment

>  <Measurement>
1.04

$$$$
